# Test system: HIV
# Type: cell-based
# measurementSetup: EC50 in the presence of human serum (25%) versus without human serum, MT-4 cells
Potency shift value below 10 gives No; Potency shift value at or above it gives Yes.

| chemSmiles | answerLabel |
| --- | --- |
| COCC[C@H]1Cn2c(C)cc3c(-c4ccc(Cl)cc4)c([C@H](OC(C)(C)C)C(=O)O)c(C)c(c32)N1S(C)(=O)=O | No |
| Cc1c([C@H](OC(C)(C)C)C(=O)O)c(-c2ccc(Cl)cc2)c2cc(C)n3c2c1N(c1ncc(OCCN(C)C)cn1)CC3 | No |
| Cc1c([C@H](OC(C)(C)C)C(=O)O)c(-c2ccc(Cl)cc2)c2cc(C)n3c2c1N(C(=O)Nc1ccccc1N)CC3 | No |
| Cc1ccc(-c2c([C@H](OC(C)(C)C)C(=O)O)c(C)c3c4c2cc(C)n4CCN3c2ncc(N3CCOCC3)cn2)cc1 | Yes |
| Cc1c(-c2c([C@H](OC(C)(C)C)C(=O)O)c(C)c3c4c2cc(C)n4CCN3C)cc(F)c2c1CCCO2 | No |

Query: Is the recorded value of Potency shift value equal to or greater than 10 for this compound? Cc1ccc(-c2c([C@H](OC(C)(C)C)C(=O)O)c(C)c3c4c2cc(C)n4CCN3c2ncc(O[C@H]3CCN(C)C3)cn2)cc1
Response: No

Query: Is the recorded value of Potency shift value equal to or greater than 10 for this compound? Cc1ccc(-c2c([C@H](OC(C)(C)C)C(=O)O)c(C)c3c4c2cc(C)n4CCN3c2ncc(Oc3nc(C)nc4ccccc34)cn2)cc1
Response: Yes

Query: Is the recorded value of Potency shift value equal to or greater than 10 for this compound? CC(=O)N1CCn2c(C)cc3c(-c4ccc(C)cc4)c([C@H](OC(C)(C)C)C(=O)O)c(C)c1c32
Response: No

Query: Is the recorded value of Potency shift value equal to or greater than 10 for this compound? Cc1ccc(-c2c([C@H](OC(C)(C)C)C(=O)O)c(C)c3c4c2cc(C)n4CCN3c2ncc(C(=O)N(C)C)cn2)cc1
Response: Yes

Query: Is the recorded value of Potency shift value equal to or greater than 10 for this compound? COc1ccc(N2CCn3c(C)cc4c(-c5ccc(Cl)cc5)c([C@H](OC(C)(C)C)C(=O)O)c(C)c2c43)nc1
Response: Yes

Query: Is the recorded value of Potency shift value equal to or greater than 10 for this compound? Cc1ccc(-c2c([C@H](OC(C)(C)C)C(=O)O)c(C)c3c4c2cc(C)n4CCN3c2ncc(Oc3nc4ccccc4o3)cn2)cc1
Response: Yes

Query: Is the recorded value of Potency shift value equal to or greater than 10 for this compound? Cc1ccc(-c2c([C@H](OC(C)(C)C)C(=O)O)c(C)c3c4c2cc(C)n4CCN3CCOCC(F)F)cc1
Response: No

Query: Is the recorded value of Potency shift value equal to or greater than 10 for this compound? Cc1ccc(-c2c([C@H](OC(C)(C)C)C(=O)O)c(F)c3c4c2cc(C)n4CCN3C)cc1
Response: Yes

* * *

# Tested on: HIV
# Format: cell-based
# measurementSetup: EC50 in the presence of human serum (25%) versus without human serum, MT-4 cells
This section presents compounds with their documented Potency shift value values.
Form field (numeric): enter value without unit.

Example entries begin here.
| compound | Potency shift value |
| --- | --- |
| CCOCc1cnc(N2CCn3c(C)cc4c(-c5ccc(Cl)cc5)c([C@H](OC(C)(C)C)C(=O)O)c(C)c2c43)nc1 [Compound I-314] | 41 |
| CCOCCN1CCn2c(C)cc3c(-c4ccc(C)cc4)c([C@H](OC(C)(C)C)C(=O)O)c(C)c1c32 [Compound I-207] | 8.1 |
| Cc1ccc(-c2c([C@H](OC(C)(C)C)C(=O)O)c(C)c3c4c2cc(C)n4CCN3c2cnc(C)cn2)cc1 [Compound I-264] | 26 |
| COCCCOc1cnc(N2CCn3c(C)cc4c(-c5ccc(Cl)cc5)c([C@H](OC(C)(C)C)C(=O)O)c(C)c2c43)nc1 [Compound I-255] | 22 |
| Cc1ccc(N2CCn3c(C)cc4c(-c5ccc(Cl)cc5)c([C@H](OC(C)(C)C)C(=O)O)c(C)c2c43)nn1 [Compound I-262] | 13 |

Let us examine a further case.
Query: Given the entry Cc1c([C@H](OC(C)(C)C)C(=O)O)c(-c2ccc(Cl)cc2)c2cc(C)n3c2c1N(c1ncc(OCC2COC2)cn1)CC3 [Compound I-258] , report its measured Potency shift value.
Response: 11
